assay.system: recombinant human TRβ (Homo sapiens, UniProt P10828)
Sequence (P10828 244-461): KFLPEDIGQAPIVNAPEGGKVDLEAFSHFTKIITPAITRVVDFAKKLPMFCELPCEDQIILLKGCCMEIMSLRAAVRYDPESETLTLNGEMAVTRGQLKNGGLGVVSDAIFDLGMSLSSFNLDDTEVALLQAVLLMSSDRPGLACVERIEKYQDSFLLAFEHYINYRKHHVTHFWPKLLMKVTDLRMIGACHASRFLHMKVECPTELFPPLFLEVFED
protocol.summary: biochemical
condition.details: TR[…] (IC50, nM), displacement of 125I-T3 (0.16 nM)
Doc: threshold 80 nM (exclusive). Items with IC50 beneath it return criterion met; others return criterion not met.

// query Strictly below 80 nM in IC50? Cc1ccc(NC(=O)Cc2nnn[nH]2)c2cc(C)n(Cc3ccc(O)c(C(C)C)c3)c12
// result criterion met

// query Strictly below 80 nM in IC50? CCOC(=O)C(=O)Nc1ccc(C)c2c1ccn2Cc1ccc(O)c(C(C)C)c1
// result criterion met

// query Strictly below 80 nM in IC50? Cc1ccc(NC(=O)CC(=O)O)c2cc(C)n(Cc3ccc(O)c(Br)c3)c12
// result criterion not met

// query Strictly below 80 nM in IC50? Cc1cc(NC(=O)CC(=O)O)cc2ccn(Cc3ccc(O)c(C(C)C)c3)c12
// result criterion not met

// query Strictly below 80 nM in IC50? CC(C)c1cc(Cn2ccc3c(NC(=O)CC(=O)O)cc(Br)cc32)ccc1O
// result criterion not met

// query Strictly below 80 nM in IC50? CCOC(=O)C(=O)Nc1ccc(C)c2c1ccn2Cc1ccc(O)c(C(O)c2ccc(F)cc2)c1 (stereo not drawn)
// result criterion not met

// query Strictly below 80 nM in IC50? CCOc1cc(Cn2c(C)cc3c(NC(=O)C(=O)O)ccc(C)c32)ccc1O
// result criterion not met

// query Strictly below 80 nM in IC50? Cc1ccc(NC(=O)CC(=O)O)c2cc(C)n(Cc3ccc(O)c(C(C)C)c3)c12
// result criterion met

// query Strictly below 80 nM in IC50? Cc1ccc(NC(=O)C(=O)O)c2cc(C)n(Cc3ccc(O)c(C(F)(F)F)c3)c12
// result criterion met

// query Strictly below 80 nM in IC50? CC(C)c1cc(Cn2c(C(F)(F)F)cc3c(NC(=O)CC(=O)O)cccc32)ccc1O
// result criterion met

// query Strictly below 80 nM in IC50? CC(C)c1cc(Cn2ccc3c(NC(=O)CC(=O)O)ccc(Cl)c32)ccc1O
// result criterion met

// query Strictly below 80 nM in IC50? CCOC(=O)C(=O)Nc1cccc2c1ccn2Cc1ccc(O)c(C(C)C)c1
// result criterion not met

// query Strictly below 80 nM in IC50? Cc1ccc(NC(=O)CC(=O)O)c2cc(C)n(Cc3ccc(O)c(C(O)c4ccc(F)cc4)c3)c12 (stereo not drawn) [Example 129]
// result criterion met

// query Strictly below 80 nM in IC50? Cc1ccc(NC(=O)C(C)C(=O)O)c2cc(C)n(Cc3ccc(O)c(C(C)C)c3)c12 (stereo not drawn)
// result criterion not met

// query Strictly below 80 nM in IC50? CCC(C)c1cc(Cn2c(C)cc3c(NC(=O)C(=O)O)ccc(C)c32)ccc1O (stereo not drawn)
// result criterion met

// query Strictly below 80 nM in IC50? CCCc1cc(Cn2c(C)cc3c(NC(=O)CC(=O)O)ccc(C)c32)ccc1O
// result criterion met

// query Strictly below 80 nM in IC50? CCOC(=O)C(=O)Nc1ccc(C)c2c1cc(C)n2Cc1ccc(O)c(C(C)C)c1
// result criterion met

// query Strictly below 80 nM in IC50? Cc1ccc(NC(=O)CC(=O)O)c2cc(C)n(Cc3ccc(O)c(C(O)c4ccc(F)cc4)c3)c12 (single isomer, unassigned; (+)) [Example 130]
// result criterion not met

// query Strictly below 80 nM in IC50? Cc1ccc(NC(=O)C(=O)O)c2ccn(Cc3ccc(O)c(C(C)C)c3)c12
// result criterion not met

// query Strictly below 80 nM in IC50? CC(C)c1cc(Cn2ccc3c(NC(=O)C(=O)O)cccc32)ccc1O
// result criterion not met

// query Strictly below 80 nM in IC50? CCCc1cc(Cn2c(C)cc3c(NC(=O)C(=O)O)ccc(C)c32)ccc1O
// result criterion met

// query Strictly below 80 nM in IC50? CC(C)c1cc(Cc2c[nH]c3c(NC(=O)CC(=O)O)cccc23)ccc1O
// result criterion not met

// query Strictly below 80 nM in IC50? CC(C)c1cc(Cn2ccc3c(NC(=O)CC(=O)O)cccc32)ccc1O
// result criterion not met

// query Strictly below 80 nM in IC50? Cc1ccc(NC(=O)Cc2nnn[nH]2)c2ccn(Cc3ccc(O)c(C(C)C)c3)c12
// result criterion not met

// query Strictly below 80 nM in IC50? Cc1cc(NC(=O)C(=O)O)cc2ccn(Cc3ccc(O)c(C(C)C)c3)c12
// result criterion met

// query Strictly below 80 nM in IC50? CCC(C)c1cc(Cn2c(C)cc3c(NC(=O)CC(=O)O)ccc(C)c32)ccc1O (stereo not drawn)
// result criterion met

// query Strictly below 80 nM in IC50? Cc1ccc(NC(=O)C(=O)O)c2cc(C)n(Cc3ccc(O)c(CCc4ccccc4)c3)c12
// result criterion not met

====

Would you mind telling me the reported IC50 of each entry?
assay.system: recombinant human TRα (Homo sapiens, UniProt P10827)
Sequence (P10827 190-410 isoform P10827-2): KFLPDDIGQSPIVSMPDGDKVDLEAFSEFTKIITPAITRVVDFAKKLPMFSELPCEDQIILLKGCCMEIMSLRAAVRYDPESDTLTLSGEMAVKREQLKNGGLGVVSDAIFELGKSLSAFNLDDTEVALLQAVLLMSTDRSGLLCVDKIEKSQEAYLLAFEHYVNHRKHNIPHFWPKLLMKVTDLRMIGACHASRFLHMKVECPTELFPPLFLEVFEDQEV
protocol.summary: biochemical
condition.details: TR[…] (IC50, nM), displacement of 125I-T3 (0.16 nM)
Response body: numeric value in nM, unit text excluded.

// query Param item = Cc1ccc(NC(=O)CC(=O)O)c2cc(C)n(Cc3ccc(O)c(C(C)C)c3)c12 ; retrieve measured IC50.
// result 670

// query Param item = CC(C)c1cc(Cn2c(C(F)(F)F)cc3c(NC(=O)C(=O)O)cccc32)ccc1O ; retrieve measured IC50.
// result 57

// query Param item = CC(C)c1cc(Cn2ccc3cc(NC(=O)C(=O)O)ccc32)ccc1O ; retrieve measured IC50.
// result 970

// query Param item = CCOC(=O)C(=O)Nc1cccc2c1ccn2Cc1ccc(O)c(C(C)C)c1 ; retrieve measured IC50.
// result 1500

// query Param item = Cc1ccc(NC(=O)C(=O)O)c2cc(C)n(Cc3ccc(O)c(CCc4ccccc4)c3)c12 ; retrieve measured IC50.
// result 2200

// query Param item = Cc1ccc(NC(=O)CCC(=O)O)c2cc(C)n(Cc3ccc(O)c(C(C)C)c3)c12 ; retrieve measured IC50.
// result 650

// query Param item = Cc1ccc(NC(=O)CC(=O)O)c2cc(C)n(Cc3ccc(O)c(Cc4ccc(F)cc4)c3)c12 ; retrieve measured IC50.
// result 600

// query Param item = CCCc1cc(Cn2c(C)cc3c(NC(=O)C(=O)O)ccc(C)c32)ccc1O ; retrieve measured IC50.
// result 52

// query Param item = CCC(C)c1cc(Cn2c(C)cc3c(NC(=O)C(=O)O)ccc(C)c32)ccc1O (centres unmarked) ; retrieve measured IC50.
// result 24

// query Param item = Cc1cc(NC(=O)C(=O)O)cc2ccn(Cc3ccc(O)c(C(C)C)c3)c12 ; retrieve measured IC50.
// result 190

// query Param item = CCOC(=O)C(=O)Nc1ccc(C)c2c1ccn2Cc1ccc(O)c(C(O)c2ccc(F)cc2)c1 (centres unmarked) ; retrieve measured IC50.
// result 480

// query Param item = Cc1cc2c(NC(=O)CC(=O)O)cccc2n1Cc1ccc(O)c(C(C)C)c1 ; retrieve measured IC50.
// result 5100

// query Param item = CCOC(=O)C(=O)Nc1ccc(C)c2c1ccn2Cc1ccc(O)c(C(C)C)c1 ; retrieve measured IC50.
// result 490

// query Param item = CCOC(=O)C(=O)Nc1cccc2c1c(C)c(C)n2Cc1ccc(O)c(C(C)C)c1 ; retrieve measured IC50.
// result 280

// query Param item = CCOC(=O)CC(=O)Nc1ccc(C)c2c1cc(C(F)(F)F)n2Cc1ccc(O)c(C(C)C)c1 ; retrieve measured IC50.
// result 3400

====

assay.system: recombinant human TRα (Homo sapiens, UniProt P10827)
protocol.summary: biochemical
condition.details: TR[…] (IC50, nM), displacement of 125I-T3 (0.16 nM)
Would you mind telling me the reported IC50 of each entry?
// unit must come after the numeric part

// query Param item = Cc1ccc(NC(=O)CC(=O)O)c2cc(C)n(Cc3ccc(O)c4ccccc34)c12 [Example 115] ; retrieve measured IC50.
// result 3600 nM

// query Param item = Cc1ccc(NC(=O)CC(=O)O)c2cc(C)n(Cc3ccc(O)c(C(O)c4ccc(F)cc4)c3)c12 (single isomer, unassigned; (+)) [Example 130] ; retrieve measured IC50.
// result 5200 nM

// query Param item = Cc1cc2c(OCC(=O)O)cccc2n1Cc1ccc(O)c(C(C)C)c1 [Example 74] ; retrieve measured IC50.
// result 2700 nM

// query Param item = CCc1cc2c(NC(=O)C(=O)O)cccc2n1Cc1ccc(O)c(C(C)C)c1 [Example 118] ; retrieve measured IC50.
// result 280 nM
